tested-on: C-Raf kinase (SEQ. ID NO: 3) (Homo sapiens (Human), UniProt P04049, Y340D/Y341D)
Sequence (P04049 307-648 Y340D/Y341D): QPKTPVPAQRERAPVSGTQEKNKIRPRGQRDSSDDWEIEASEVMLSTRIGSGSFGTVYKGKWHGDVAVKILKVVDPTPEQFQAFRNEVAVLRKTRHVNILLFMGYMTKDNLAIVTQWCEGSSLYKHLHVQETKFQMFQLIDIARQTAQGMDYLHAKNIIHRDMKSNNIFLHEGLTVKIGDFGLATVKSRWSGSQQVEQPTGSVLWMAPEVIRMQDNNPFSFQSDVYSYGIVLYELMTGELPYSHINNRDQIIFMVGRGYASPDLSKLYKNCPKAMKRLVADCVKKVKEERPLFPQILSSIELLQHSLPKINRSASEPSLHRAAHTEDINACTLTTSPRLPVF
test-name: Biochemical Assay for C-Raf (1)
cond: Table J, biochemical assay (1); read-out: CRAF (1)
pIC50: −log10 of the molar value.
observable: pIC50

COC(=O)Nc1cc(-c2cnnc(-c3cc(NC(=O)c4cn(C(C)C)nn4)ccc3C)c2)ccn1 [Example 409]: 6.30 to 7.00

Problem: Need pIC50 of CNC(=O)c1cc(-c2cncc(-c3cc(NC(=O)Cn4cc(C(C)C)nn4)ccc3C)c2)ncn1 [Example 383] , thanks.
Solution: 6.30 to 7.00

Problem: Need pIC50 of Cc1ccc(NC(=O)c2ccnc(C(F)F)c2)cc1-c1cncc(-c2cc(NC(=O)C3CC3)ncn2)c1 [Example 429] , thanks.
Solution: ≥ 7.00

Problem: Need pIC50 of CNC(=O)c1cc(-c2ccnc(-c3cc(NC(=O)CCC4(F)CC4)ccc3C)c2)ccn1 [Example 392] , thanks.
Solution: 6.30 to 7.00

Problem: Need pIC50 of Cc1ncc(NC(=O)c2ccnc(C(C)(C)C#N)c2)cc1-c1cncc(-c2cc(NC(=O)C3CC3)ncn2)c1 [Example 410] , thanks.
Solution: ≥ 7.00

Problem: Need pIC50 of Cc1ccc(NC(=O)c2ccnc(C3CC3)c2)cc1-c1cncc(-c2cc(NC(=O)C3CC3)ncn2)c1 [Example 396] , thanks.
Solution: ≥ 7.00

Problem: Need pIC50 of Cc1ccc(NC(=O)c2cc(C(C)(C)C)on2)cc1-c1cncc(-c2cc(NC(=O)C3CC3)ncn2)c1 [Example 431] , thanks.
Solution: ≥ 7.00

----------
tested-on: B-Raf kinase (SEQ. ID NO: 2) (Homo sapiens (Human))
Sequence (P15056 416-766): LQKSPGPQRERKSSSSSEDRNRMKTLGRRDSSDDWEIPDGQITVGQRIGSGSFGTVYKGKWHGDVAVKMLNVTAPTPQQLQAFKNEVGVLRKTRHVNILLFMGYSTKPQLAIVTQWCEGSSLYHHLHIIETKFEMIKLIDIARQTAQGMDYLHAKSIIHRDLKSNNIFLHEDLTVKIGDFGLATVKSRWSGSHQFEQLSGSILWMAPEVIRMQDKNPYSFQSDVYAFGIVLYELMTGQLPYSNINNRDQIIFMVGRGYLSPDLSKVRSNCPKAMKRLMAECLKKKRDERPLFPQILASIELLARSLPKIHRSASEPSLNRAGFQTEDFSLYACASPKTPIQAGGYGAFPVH
test-name: Biochemical Assay for B-Raf (1)
cond: Table J, assay version (1); read-out: BRAF (1) IC50
observable: IC50

Problem: Need IC50 of `CC(=O)Nc1cc(-c2nccc(-c3cc(NC(=O)c4cnnc(C5CC5)c4)ccc3C)n2)ccn1` , thanks.
Solution: ≤ 100 nM

Problem: Need IC50 of `CNC(=O)c1cc(-c2cncc(-c3cc(NC(=O)c4ccnc(C(C)(C)C#N)c4)ccc3C)n2)ccn1` , thanks.
Solution: 100 to 500 nM

Problem: Need IC50 of `CNC(=O)c1cc(-c2cccc(-c3cc(NC(=O)c4ccnc(C(C)(C)C#N)c4)cnc3C)c2)cnn1` , thanks.
Solution: 500 to 1000 nM

Problem: Need IC50 of `COC(=O)Nc1cc(-c2nccc(-c3cc(NC(=O)c4ccnc(C(C)(C)C#N)c4)c(F)cc3C)n2)ccn1` , thanks.
Solution: ≤ 100 nM

Problem: Need IC50 of `Cc1ccc(NC(=O)c2ccnc(C(C)(C)C#N)c2)cc1-c1cccc(-c2ncnc3c2CC(=O)N3)c1` , thanks.
Solution: ≤ 100 nM

Problem: Need IC50 of `Cc1ncc(NC(=O)c2ccnc(C(C)(C)C#N)c2)cc1-c1cc(-c2cc(NC(=O)C3CC3)ncn2)cc(C2CC2)c1` , thanks.
Solution: 100 to 500 nM

----------
Test system: Miapaca-2 cells
test-name: MiaPaca-2 Combination Cell proliferation Assay (1) with cobimetinib
Assay type: cell-based
cond: MiaPaca-2 cell proliferation, read-out: MiaPaca-2 Combo (1) IC50
Below is a list of entries, each paired with its recorded IC50 value.

Sample records with IC50:
COC(=O)Nc1cc(-c2cncc(-c3cc(NC(=O)c4ccnc(C(C)(F)F)c4)ccc3C)c2)ncn1: 100 to 500 nM
CC(=O)Nc1cc(-c2cc(-c3cc(NC(=O)c4ccnc(C(F)(F)F)c4)ccc3C)cc(N3CCOCC3)n2)ccn1: ≤ 100 nM
Cc1ccc(NC(=O)c2ccnc(C(F)F)c2)cc1-c1ccnc(-c2ccnc(NC(=O)C3CC3)c2)n1: 100 to 500 nM

Problem: Need IC50 of `Cc1ncc(NC(=O)c2ccnc(C(C)(C)F)c2)cc1-c1cccc(-c2cc(NC(=O)C3CC3)ncn2)c1` , thanks.
Solution: ≤ 100 nM

Problem: Need IC50 of `Cc1cc(F)c(NC(=O)c2ccnc(C(F)(F)F)c2)cc1-c1ccnc(-c2ccnc(NC(=O)CN(C)C)c2)c1` , thanks.
Solution: 100 to 500 nM

Problem: Need IC50 of `COC(=O)Nc1cc(-c2cccc(-c3cc(NC(=O)c4ccnc(C(C)(C)C#N)c4)cnc3C)c2)ccn1` , thanks.
Solution: ≤ 100 nM

Problem: Need IC50 of `CC(=O)Nc1cc(-c2cncc(-c3cc(NC(=O)c4ccnc(C(F)(F)F)c4)ccc3C)n2)ccn1` , thanks.
Solution: ≤ 100 nM

Problem: Need IC50 of `Cc1ccc(NC(=O)c2ccnc(C(C)(C)C#N)c2)cc1-c1cccc(-c2cc(NC(=O)C(C)(C)C)ncn2)c1` , thanks.
Solution: 100 to 500 nM

Problem: Need IC50 of `COC(C)(C)c1cc(C(=O)Nc2ccc(C)c(-c3cc(-c4ccnc(NC(=O)C5CC5)c4)cnn3)c2)ccn1` , thanks.
Solution: ≤ 100 nM

----------
tested-on: B-Raf (V600E) (SEQ. ID NO: 4) kinase (Homo sapiens (Human), UniProt P15056, V600E)
Sequence (P15056 416-766 V600E): as the sequence (P15056 416-766) above, with V185E counted along it
test-name: Biochemical Assay for B-Raf (V600E) (1)
cond: Table J, BRAF V600E, assay version (1); read-out: BRAF VE (1) IC50
pIC50: −log10 of the molar value.
Below is a list of entries, each paired with its recorded pIC50 value.

COC(=O)Nc1cc(-c2cnnc(-c3cc(NC(=O)c4ccnc(C5CC5)c4)cnc3C)c2)ccn1 [Example 362]: 5.00 to 6.00
Cc1ccc(NC(=O)c2cnn(C(C)(C)C)c2)cc1-c1cc(-c2ccnc(NC(=O)C3CC3)c2)cnn1 [Example 321]: ≥ 7.00
Cc1ncc(NC(=O)CN2CCOCC2)cc1-c1cccc(-c2cc(NC(=O)C3CC3)ncn2)c1 [Example 353]: 6.30 to 7.00
Cc1cc(F)c(NC(=O)c2ccnc(C(C)(C)F)c2)cc1-c1ccnc(-c2ccnc(NC(=O)C3CC3)c2)c1 [Example 300]: ≥ 7.00
COC(=O)Nc1cc(-c2cc(-c3cc(NC(=O)c4ccnc(C(C)(C)C#N)c4)cnc3C)ccn2)ccn1 [Example 297]: ≥ 7.00
CNC(=O)c1cc(-c2cc(-c3cc(NC(=O)c4ccnc(C(F)(F)F)c4)ccc3C)cc(=O)n2C)ccn1 [Example 67]: ≥ 7.00

Problem: Need pIC50 of Cc1ccc(NC(=O)c2cc(CN(C)C)cc(C(F)(F)F)c2)cc1-c1cncc(-c2ccnc(NC(=O)C3CC3)c2)n1 [Example 185] , thanks.
Solution: ≥ 7.00

----------
tested-on: B-Raf (V600E) (SEQ. ID NO: 4) kinase (Homo sapiens (Human), UniProt P15056, V600E)
test-name: Biochemical Assay for B-Raf (V600E) (1)
cond: Table J, BRAF V600E, biochemical assay (1); read-out: BRAF VE (1)
Below is a list of entries, each paired with its recorded IC50 value.

CNC(=O)c1cc(-c2cncc(-c3cc(NC(=O)c4cnn(CC(F)(F)F)c4)ccc3C)c2)ncn1 [Example 382]: 100 to 500 nM

For the next question, use this compound.
Problem: Need IC50 of Cc1cc(F)c(NC(=O)c2ccnc(C(C)(C)F)c2)cc1-c1cncc(-c2ccnc(NC(=O)C3CC3)c2)c1 [Example 399] , thanks.
Solution: ≤ 100 nM

----------
System: H2405 cells
test-name: H2405 Cell Proliferation Assay (1)
Type: cell-based
cond: Homo sapiens, NCI-H2405
observable: IC50

Sample records with IC50:
Cc1ccc(NC(=O)c2ccnc(C(F)(F)F)c2)cc1-c1cncc(-c2cc(NC(=O)C3CC3)ncn2)c1 [Example 397]: ≤ 0.1 µM
CNC(=O)c1cc(-c2cnnc(-c3cc(NC(=O)CCC4(F)CC4)cnc3C)c2)ccn1 [Example 374]: 1 to 10 µM
Cc1cc(F)c(NC(=O)c2ccnc(C(C)(C)C#N)c2)cc1-c1cc(-c2ccnc(NC(=O)C3CC3)c2)cnn1 [Example 298]: 0.1 to 0.5 µM

Problem: Need IC50 of CC(=O)Nc1cc(-c2ccnc(-c3cc(NC(=O)c4ccnc(C(C)(C)C#N)c4)ccc3C)n2)ccn1 [Example 103] , thanks.
Solution: ≤ 0.1 µM

Problem: Need IC50 of Cc1ccc(NC(=O)c2ccnc(C(C)(C)F)c2)cc1-c1cc(-c2ccnc3[nH]ncc23)cnn1 [Example 400] , thanks.
Solution: 1 to 10 µM

Problem: Need IC50 of COC(=O)Nc1cc(-c2cnnc(-c3cc(NC(=O)c4cn(C(C)C)nn4)ccc3C)c2)ccn1 [Example 409] , thanks.
Solution: 1 to 10 µM

Problem: Need IC50 of Cc1ccc(NC(=O)[C@H]2CCO[C@@H](C(C)C)C2)cc1-c1cc(-c2ccnc(NC(=O)C3CC3)c2)cnn1 [Example 388] , thanks.
Solution: 1 to 10 µM

Problem: Need IC50 of CO[C@H]1CC[C@H](C(=O)Nc2cnc(C)c(-c3cccc(-c4cc(NC(=O)C5CC5)ncn4)c3)c2)CC1 [Example 347] , thanks.
Solution: 1 to 10 µM

Problem: Need IC50 of CNC(=O)c1cc(-c2cc(-c3cc(NC(=O)c4ccnc(C(C)(C)C#N)c4)c(F)cc3C)ccn2)ccn1 [Example 176] , thanks.
Solution: 0.1 to 0.5 µM
